assay target: S. aureus TrmD (Staphylococcus aureus, UniProt Q2FZ43)
Construct: made in house; host or cells: E. coli BL21
Sequence (Q2FZ43 whole entry): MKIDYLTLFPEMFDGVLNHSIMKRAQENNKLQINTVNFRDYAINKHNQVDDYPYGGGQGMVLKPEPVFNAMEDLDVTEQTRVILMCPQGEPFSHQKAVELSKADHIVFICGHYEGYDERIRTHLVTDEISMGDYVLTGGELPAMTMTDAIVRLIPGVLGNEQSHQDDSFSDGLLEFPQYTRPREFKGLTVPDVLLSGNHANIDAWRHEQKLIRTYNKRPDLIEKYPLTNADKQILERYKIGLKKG
assay protocol: Aptamer-based MTase enzyme inhibition assay
Type: biochemical
value type: pIC50
Notebook: values listed as pIC50 are -log10 of the concentration (mol/L).

Task: Consider the molecule shown here: NC(N)=NCCn1cc(-c2c[nH]c3nc[nH]c(=O)c23)nn1 What is its recorded pIC50?
Output: 5.94

---

Entries and their inhibition at 1 µM
assay target: S. aureus TrmD (Staphylococcus aureus, UniProt Q2FZ43)
Construct: made in house; host or cells: E. coli BL21
assay protocol: nanoSAR direct-to-biology FP displacement screening of crude triazoles
Assay type: binding
particulars: crude triazole at 1 μM, assuming full conversion; 500 nM TrmD, 10 nM tracer 4; read-out: % displaced tracer
State the answer as a number, implicitly in %.

[[record]]
compound = "CCO[C@@H]1CCCC[C@H]1n1cc(-c2c[nH]c3nc[nH]c(=O)c23)nn1 [Compound 03D09]"
measured_result = 25

[[record]]
compound = "NC(=O)[C@@H](c1ccc(F)cc1)n1cc(-c2c[nH]c3nc[nH]c(=O)c23)nn1 [Compound 03B07]"
measured_result = 16

[[record]]
compound = "COc1nc(OC)nc(-n2cc(-c3c[nH]c4nc[nH]c(=O)c34)nn2)n1 [Compound 03F05]"
measured_result = 33

[[record]]
compound = "O=c1[nH]cnc2[nH]cc(-c3cn(CC4CCNCC4)nn3)c12 [Compound 02C09]"
measured_result = 79

[[record]]
compound = "COc1ccc(Cl)c(-n2cc(-c3c[nH]c4nc[nH]c(=O)c34)nn2)c1 [Compound 02D02]"
measured_result = 3


Task: Consider the compound shown here: Cc1ccc([C@@H](O)[C@H](C)n2cc(-c3c[nH]c4nc[nH]c(=O)c34)nn2)cc1 [Compound 01D10] What is its recorded inhibition at 1 µM?
Output: 49

Task: Consider the compound shown here: O=c1[nH]cnc2[nH]cc(-c3cn(-c4nccs4)nn3)c12 [Compound 02D03] What is its recorded inhibition at 1 µM?
Output: 7

Task: Consider the compound shown here: O=c1[nH]cnc2[nH]cc(-c3cn(C[C@@H]4C[C@@H]4C(F)(F)F)nn3)c12 [Compound 03E06] What is its recorded inhibition at 1 µM?
Output: 34

---

assay target: S. aureus TrmD (Staphylococcus aureus, UniProt Q2FZ43)
Construct: made in house; host or cells: E. coli BL21
assay protocol: nanoSAR direct-to-biology FP displacement screening of crude triazoles
Assay type: binding
particulars: crude triazole at 1 μM, assuming full conversion; 500 nM TrmD, 10 nM tracer 4; read-out: % displaced tracer
Entries and their inhibition at 1 µM
Dear colleague, please send the value followed by its unit.

[[record]]
smiles_representation = "CC(C)(C)OC(=O)N1CC(c2ocnc2Cn2cc(-c3c[nH]c4nc[nH]c(=O)c34)nn2)C1"
assay_target = "S. aureus TrmD (Staphylococcus aureus, UniProt Q2FZ43)"
value_type = "inhibition at 1 µM"
measured_result = "37%"


Task: Tell me reported inhibition at 1 µM for O=C1NC[C@@H](Cn2cc(-c3c[nH]c4nc[nH]c(=O)c34)nn2)O1 , tested with S. aureus TrmD (Staphylococcus aureus, UniProt Q2FZ43).
Output: 45%

Task: Tell me reported inhibition at 1 µM for O=c1[nH]cnc2[nH]cc(-c3cn(-c4ccc(CO)cc4)nn3)c12 , tested with S. aureus TrmD (Staphylococcus aureus, UniProt Q2FZ43).
Output: 47%

Task: Tell me reported inhibition at 1 µM for O=c1[nH]cnc2[nH]cc(-c3cn(-c4ccc5c(c4)OCO5)nn3)c12 , tested with S. aureus TrmD (Staphylococcus aureus, UniProt Q2FZ43).
Output: 59%

Task: Tell me reported inhibition at 1 µM for O=c1[nH]cnc2[nH]cc(-c3cn(C4(c5ccc(F)cc5)CCOCC4)nn3)c12 , tested with S. aureus TrmD (Staphylococcus aureus, UniProt Q2FZ43).
Output: 6%

Task: Tell me reported inhibition at 1 µM for O=c1[nH]cnc2[nH]cc(-c3cn(-c4ccc(O)cc4)nn3)c12 , tested with S. aureus TrmD (Staphylococcus aureus, UniProt Q2FZ43).
Output: 23%

Task: Tell me reported inhibition at 1 µM for Cc1ccc2nc(Cn3cc(-c4c[nH]c5nc[nH]c(=O)c45)nn3)cn2c1 , tested with S. aureus TrmD (Staphylococcus aureus, UniProt Q2FZ43).
Output: 57%

Task: Tell me reported inhibition at 1 µM for Cc1ccc(O)c(Cn2cc(-c3c[nH]c4nc[nH]c(=O)c34)nn2)n1 , tested with S. aureus TrmD (Staphylococcus aureus, UniProt Q2FZ43).
Output: 32%

Task: Tell me reported inhibition at 1 µM for O=c1[nH]cnc2[nH]cc(-c3cn(-c4cc(F)cc(F)c4)nn3)c12 , tested with S. aureus TrmD (Staphylococcus aureus, UniProt Q2FZ43).
Output: 25%

---

assay target: S. aureus TrmD (Staphylococcus aureus)
Construct: made in house; host or cells: E. coli BL21
assay protocol: nanoSAR direct-to-biology FP displacement screening of crude triazoles
Assay type: binding
particulars: crude triazole at 1 μM, assuming full conversion; 500 nM TrmD, 10 nM tracer 4; read-out: % displaced tracer
value type: inhibition at 1 µM (%)
State the answer as a number, implicitly in %.

[[record]]
molecule = "O=c1[nH]cnc2[nH]cc(-c3cn(-c4ccc5c(c4)NCC5)nn3)c12"
measured_result = 25

[[record]]
molecule = "O=c1[nH]cnc2[nH]cc(-c3cn(Cc4ncoc4C4CCC4)nn3)c12"
measured_result = 61

[[record]]
molecule = "O=c1[nH]cnc2[nH]cc(-c3cn(C[C@H]4OCCOC45CCC5)nn3)c12"
measured_result = 61

[[record]]
molecule = "O=c1[nH]cnc2[nH]cc(-c3cn(CCO[C@H]4CCOC4)nn3)c12"
measured_result = 56

[[record]]
molecule = "CC(C)(C)OC(=O)N1CCC[C@H](CCn2cc(-c3c[nH]c4nc[nH]c(=O)c34)nn2)CC1"
measured_result = 71


Continue with the molecule presented below.
Task: Tell me reported inhibition at 1 µM for O=c1[nH]cnc2[nH]cc(-c3cn(C[C@@H]4CCCCNC4)nn3)c12 , tested with S. aureus TrmD (Staphylococcus aureus).
Output: 81

---

assay target: S. aureus TrmD (Staphylococcus aureus, UniProt Q2FZ43)
Construct: made in house; host or cells: E. coli BL21
assay protocol: nanoSAR direct-to-biology FP displacement screening of crude triazoles
Type: binding
particulars: crude triazole at 1 μM, assuming full conversion; 500 nM TrmD, 10 nM tracer 4; read-out: % displaced tracer
value type: inhibition at 1 µM

Below, each entry is followed by its recorded inhibition at 1 µM result.
[[record]]
smiles_representation = "O=c1[nH]cnc2[nH]cc(-c3cn(Cc4ccncc4)nn3)c12"
measured_result = "11%"

[[record]]
smiles_representation = "O=c1[nH]cnc2[nH]cc(-c3cn([C@H]4CCCNCC4)nn3)c12"
measured_result = "18%"

[[record]]
smiles_representation = "O=c1[nH]cnc2[nH]cc(-c3cn(C[C@H]4CCC[C@@]5(CCOC5)O4)nn3)c12"
measured_result = "52%"


Task: Tell me reported inhibition at 1 µM for O=C1NCCCC[C@H]1n1cc(-c2c[nH]c3nc[nH]c(=O)c23)nn1 , tested with S. aureus TrmD (Staphylococcus aureus, UniProt Q2FZ43).
Output: 40%

---

assay target: S. aureus TrmD (Staphylococcus aureus, UniProt Q2FZ43)
Construct: made in house; host or cells: E. coli BL21
assay protocol: nanoSAR direct-to-biology FP displacement screening of crude triazoles
Type: binding
particulars: crude triazole at 1 μM, assuming full conversion; 500 nM TrmD, 10 nM tracer 4; read-out: % displaced tracer
Classes are defined on inhibition at 1 µM with ranges low group: < 20%; middle group: ≥ 20% and < 50%; high group: ≥ 50%

[[record]]
compound = "CC(C)(CN)Cn1cc(-c2c[nH]c3nc[nH]c(=O)c23)nn1 [Compound 02E01]"
qualitative_label = "high group"

[[record]]
compound = "CN1CCN(CCn2cc(-c3c[nH]c4nc[nH]c(=O)c34)nn2)CC1 [Compound 03G10]"
qualitative_label = "low group"

[[record]]
compound = "O=c1[nH]cnc2[nH]cc(-c3cn(-c4ccc(Cl)cn4)nn3)c12 [Compound 02C03]"
qualitative_label = "low group"

[[record]]
compound = "O=c1[nH]cnc2[nH]cc(-c3cn(C[C@@H]4CCCCC4(F)F)nn3)c12 [Compound 04H03]"
qualitative_label = "high group"

[[record]]
compound = "O=C1NCCN1CCn1cc(-c2c[nH]c3nc[nH]c(=O)c23)nn1 [Compound 04G03]"
qualitative_label = "low group"

[[record]]
compound = "COC(=O)c1csc(Cn2cc(-c3c[nH]c4nc[nH]c(=O)c34)nn2)n1 [Compound 03G08]"
qualitative_label = "low group"


Task: Using the reported inhibition at 1 µM, which band applies to C[C@H](c1ccc(F)cc1Cl)n1cc(-c2c[nH]c3nc[nH]c(=O)c23)nn1 [Compound 01G11] ?
Output: high group

Task: Using the reported inhibition at 1 µM, which band applies to O=c1[nH]cnc2[nH]cc(-c3cn(CCOCC4CCCC4)nn3)c12 [Compound 03B11] ?
Output: middle group

Task: Using the reported inhibition at 1 µM, which band applies to CC[C@H](c1ccccn1)n1cc(-c2c[nH]c3nc[nH]c(=O)c23)nn1 [Compound 04A02] ?
Output: low group

Task: Using the reported inhibition at 1 µM, which band applies to O=c1[nH]cnc2[nH]cc(-c3cn(Cc4cn5cccnc5n4)nn3)c12 [Compound 02C07] ?
Output: high group

Task: Using the reported inhibition at 1 µM, which band applies to O=c1[nH]cnc2[nH]cc(-c3cn(C[C@H](O)c4ccc(Cl)cc4)nn3)c12 [Compound 02C04] ?
Output: high group

Task: Using the reported inhibition at 1 µM, which band applies to CCc1nc(Cn2cc(-c3c[nH]c4nc[nH]c(=O)c34)nn2)cs1 [Compound 01E03] ?
Output: high group

Task: Using the reported inhibition at 1 µM, which band applies to Nc1ccc(Cl)c(-n2cc(-c3c[nH]c4nc[nH]c(=O)c34)nn2)c1 [Compound 02E08] ?
Output: low group

Task: Using the reported inhibition at 1 µM, which band applies to O=c1[nH]cnc2[nH]cc(-c3cn(CCN4CCC(O)CC4)nn3)c12 [Compound 01H11] ?
Output: middle group

Task: Using the reported inhibition at 1 µM, which band applies to O=C1c2ccccc2C(=O)N1CCn1cc(-c2c[nH]c3nc[nH]c(=O)c23)nn1 [Compound 01H05] ?
Output: low group

Task: Using the reported inhibition at 1 µM, which band applies to O=c1[nH]cnc2[nH]cc(-c3cn(CCCOC4CCC4)nn3)c12 [Compound 01C08] ?
Output: middle group

Task: Using the reported inhibition at 1 µM, which band applies to O=c1[nH]cnc2[nH]cc(-c3cn(-c4ccc(C(F)(F)F)cc4)nn3)c12 [Compound 03B09] ?
Output: low group

Task: Using the reported inhibition at 1 µM, which band applies to CC(C)(C)O[C@H]1C[C@@H](n2cc(-c3c[nH]c4nc[nH]c(=O)c34)nn2)C1 [Compound 02F01] ?
Output: middle group
